Cited source: PubChem BioAssay AID2060906

Test system: 485176-168-R4-J1-PDC complex spheroid growth;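 further: spheroids exposed to compounds for seven days before readout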
Protocol summary: Anticancer human tumor 485176-168-R4-J1-PDC patient-derived pancreatic adenocarcinoma cell line growth inhibition [RAS]
Measurement setup: curve of first compound; second compound 3.16 µM
pIC50: −log10 of the molar value.
Readout: pIC50

Worked cases, pIC50 given:
Compound	pIC50
C[C@@H](NC(=O)c1ncnc(N)c1Cl)c1ncc(C(=O)Nc2cc(C(F)(F)F)c(Cl)cn2)s1 + C#Cc1c(F)ccc2cc(O)cc(-c3ncc4c(N5CC6CCC(C5)N6)nc(OCC56CCCN5CC(F)C6)nc4c3F)c12	< 5.00
CC(=O)OC12COC1CC(O)C1(C)C(=O)C(O)C3=C(C)C(OC(=O)C(O)C(NC(=O)OC(C)(C)C)c4ccccc4)CC(O)(C(OC(=O)c4ccccc4)C21)C3(C)C (stereo not drawn) + C#Cc1c(F)ccc2cc(O)cc(-c3ncc4c(N5CC6CCC(C5)N6)nc(OCC56CCCN5CC(F)C6)nc4c3F)c12	> 7.50

# input for lookup
[in] Request the reported pIC50 associated with Cc1nc(N2CCC3(CC2)COC(C)C3N)c(CO)nc1Sc1ccnc(N)c1Cl (stereo not drawn) + C#Cc1c(F)ccc2cc(O)cc(-c3ncc4c(N5CC6CCC(C5)N6)nc(OCC56CCCN5CC(F)C6)nc4c3F)c12
[out] < 5.00
